experiment: DUSP6 inhibitors restoring Erk phosphorylation by chemical complementation, primary imaging in DUSP6-transfected HeLa (AID 609); details: HeLa MKP-3 transfected, phospho-Erk imaging KS statistic; measured here: nuclear pErk red intensity z-score; at 10 µM; stronger effect = higher value; cells stimulated with TPA for 15 min
Would you mind labelling by z-score? At or over -0.9 is Met, under is Not met.

// known answers, use as guide
compound: CCCCc1nc2n[nH]c(N)c2c2c1CCCC2
label.class: Met

compound: CCCC(=O)O[C@]1(C(=O)CCl)[C@@H](C)C[C@H]2[C@@H]3CCC4=CC(=O)C=C[C@]4(C)[C@@]3(F)C(=O)C[C@@]21C
label.class: Met

compound: O=C(OCCCN1CCCC1)C1(c2ccccc2)CCCC1
label.class: Met

compound: CCCCn1c(C)cc2cc(O)ccc21
label.class: Met

compound: COc1cccc(OC)c1-c1nn2c(-c3ccco3)nnc2s1
label.class: Met

Does the reported z-score for CCOC(=O)c1[nH]c2ccc(OC)cc2c1NC(=O)CCN1CCC(C)CC1 fall at or above the -0.9 mark?
Not met

Tell me whether z-score is at least -0.9 here: COC(=O)c1ccc(OC(=O)c2ccc(OC)c(OC)c2)c(OC)c1
Met

z-score >= -0.9 for CCOC(=O)C1CCCN(c2nc3ccccc3nc2C(C#N)C(=O)OCCOC)C1 (stereo unspecified) ?
Not met

API: above_or_equal(metric=z-score, cutoff=-0.9) for item COc1cc([C@@H]2[C@H]3CNCC=C3C(C#N)=C(N)C2(C#N)C#N)ccc1OC(C)C
Not met

Hi, just wondering whether CCCCOc1ccc(C(=O)OC2CC(C)N(C)CC2C)cc1 (stereo unspecified) shows z-score of -0.9 or higher.
Met

Entry COc1cccc(COc2nc3c(c(=O)n(C)c(=O)n3C)n2C)c1 : is its z-score no less than -0.9?
Met

* * *

Known cell count of a selection of molecules
assay: inhibitors of TNFa-induced NFkB p65 translocation, primary screen, imaging, HUVEC, MLSMR starter and 10KST1 sets (AID 438); settings: HUVEC TNFa-induced p65 nuclear translocation; measured here: nuclei count (cytotoxicity indicator), at 2.08 µM;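 also: compound added about 3h40 before a 20 min TNFalpha stimulation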

As a guide, the following entries are already answered.
molecule: CCOc1ccc2c(C)nc(NC3=NC(C)(C)C=C(C)N3)nc2c1
measurement.name: cell count
meas.value: 641
//
molecule: Cc1ccc(C(=O)C2=C(O)C(=O)N(c3ncccn3)C2c2cccc(Cl)c2)o1 (stereo not given)
measurement.name: cell count
meas.value: 472
//
molecule: C[C@]12CCC(=O)C=C1CC[C@@H]1[C@@H]2CC[C@@]2(C)[C@H]1CC[C@]2(O)C(=O)CO
measurement.name: cell count
meas.value: 695
//
molecule: CSc1nnc2n(C3CCCCC3)c(=O)c3c4c(sc3n12)CCCC4
measurement.name: cell count
meas.value: 609

For the molecule c1csc(Cc2nn3c(-c4ccncc4)nnc3s2)c1 , what cell count is on record?
669

* * *

target: Muscarinic acetylcholine receptor M4 (Homo sapiens) (UniProt P08173); assay: compounds altering M4/GIRK thallium flux, either direction, primary screen, M4 allosteric agonist project, cell-based, HEK293 M4/GIRK, BTC-AM (AID 625); settings: at 10 µM, actives lie on both sides;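 also: thallium influx through GIRK channels coupled to M4 in HEK293 cells with BTC-AM dye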
Sequence (P08173 whole entry, looked up): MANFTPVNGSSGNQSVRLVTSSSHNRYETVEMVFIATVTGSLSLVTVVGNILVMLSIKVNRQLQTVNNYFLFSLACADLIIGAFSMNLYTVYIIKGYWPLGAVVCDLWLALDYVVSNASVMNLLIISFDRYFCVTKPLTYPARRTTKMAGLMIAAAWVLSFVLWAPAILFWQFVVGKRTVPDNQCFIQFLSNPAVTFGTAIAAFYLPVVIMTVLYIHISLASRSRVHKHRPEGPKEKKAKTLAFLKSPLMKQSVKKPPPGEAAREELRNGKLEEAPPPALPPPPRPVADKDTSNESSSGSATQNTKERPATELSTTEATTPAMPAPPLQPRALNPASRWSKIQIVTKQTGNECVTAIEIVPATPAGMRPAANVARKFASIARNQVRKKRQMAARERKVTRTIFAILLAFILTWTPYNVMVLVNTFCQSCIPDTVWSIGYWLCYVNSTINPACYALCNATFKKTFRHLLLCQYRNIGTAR
Recorded measurements of fluorescence slope, one per entry
Just the number.

Example results:
compound: CCOC(=O)Cc1nnc(Nc2cccc(O)c2)c2ccccc12
measurement.name: fluorescence slope
meas.value: 0.0057
//
compound: COc1ccc(-n2ccc(=O)c3c2CCCC3=O)cc1
measurement.name: fluorescence slope
meas.value: 0.00531
//
compound: COC(=O)C1=C(C)N=C2SC(C)C(=O)N2C1c1ccc(C(=O)OC)cc1 (configuration not stated)
measurement.name: fluorescence slope
meas.value: 0.00486
//
compound: COCc1cc(=O)[nH]c(Nc2nc3ccccc3o2)n1
measurement.name: fluorescence slope
meas.value: 0.00519
//
compound: CC(C)c1nc(NCC2CCCO2)c(C#N)c2c1COC(C)(C)C2 (configuration not stated)
measurement.name: fluorescence slope
meas.value: 0.00335

Value wanted: fluorescence slope (Muscarinic acetylcholine receptor M4 (Homo sapiens) (UniProt P08173)) of entry CCOC(=O)c1[nH]c2ccc(OC)cc2c1NC(=O)CCN1CCC(C)CC1
0.00353

Can you look up fluorescence slope on Muscarinic acetylcholine receptor M4 (Homo sapiens) (UniProt P08173) for Cc1cc(NC(=O)CSc2nc(-c3cccnc3)ccc2C#N)no1 ?
0.00502

* * *

assay: inhibitors of E-selectin induction by TNFa, primary screen, imaging, HUVEC, immunofluorescence, MLSMR starter and 10KST1 sets (AID 487); conditions: HUVEC TNFalpha-induced E-selectin immunofluorescence imaging, at 2 µM; measured here: cell number, toxicity;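 also: 100% = median nuclei count of all wells on the same plate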
measurement.name: nuclei count (%)
The response must be a number in % with no trailing unit.

Consider the worked cases shown below.
compound: Cn1c(=O)c2c(nc(Oc3ccc4c(c3)OCO4)n2Cc2ccc(F)cc2)n(C)c1=O
unit.abbreviation: %
nuclei count: 90.8
--
compound: CC[C@H](C)C(=O)O[C@H]1C[C@@H](C)C=C2C=C[C@H](C)[C@H](CC[C@@H]3C[C@@H](O)CC(=O)O3)[C@H]21
unit.abbreviation: %
nuclei count: 122

I am curious: what nuclei count value has been reported for COc1ccc(C(=O)Cn2c(Br)nc3c2c(=O)n(C)c(=O)n3C)cc1OC ?
116

Need nuclei count, item CC(C)(C)c1ccc(C(=O)C=[N+]=[N-])cc1
60.8

Quick one: nuclei count for O=C(O)CC(NC(=O)COc1ccc(Cl)cc1Cl)C(=O)O (configuration not stated) ?
197

Param item = CCCCCCn1c(C(C)O)nc2ccccc21 (configuration not stated) ; retrieve measured nuclei count.
156

I have this compound here, CCOC(=O)C1CCN(c2nc3ccccc3nc2C(C#N)C(=O)NCCc2ccccc2)CC1 (configuration not stated) , and I need its recorded nuclei count.
184

Name the reported nuclei count value associated with the compound CC1(C)O[C@@H]2C[C@H]3[C@@H]4C[C@H](F)C5=CC(=O)CC[C@]5(C)[C@H]4[C@@H](O)C[C@]3(C)[C@]2(C(=O)CO)O1
102

Value lookup for nuclei count; key = CN1C(=O)NC(NC(=O)c2ccco2)(C(F)(F)F)C1=O (configuration not stated)
116

* * *

Below: a set of entries, each annotated with reported z-score.
assay: DUSP6 inhibitors restoring Erk phosphorylation by chemical complementation, primary imaging in DUSP6-transfected HeLa (AID 609); conditions: HeLa MKP-3 transfected, phospho-Erk imaging KS statistic; measured here: nuclear c-Myc green intensity z-score; at 10 µM; cells stimulated with TPA for 15 min
Answer with the value's number alone.

These solved cases illustrate the format of a correct answer.
compound: C=CCc1ccccc1OCC(O)CNC(C)C (stereo not drawn)
z-score: 0.365

compound: COc1ccc(CCN(C)CCCC(C#N)(c2cc(OC)c(OC)c(OC)c2)C(C)C)cc1OC (stereo not drawn)
z-score: 0.829

compound: CC(COc1ccccc1)NC(C)C(O)c1ccc(O)cc1 (stereo not drawn)
z-score: -0.532

compound: Cn1c(-n2c(-c3ccco3)nc3ccccc3c2=O)nc2ccccc21
z-score: 0.431

compound: CC(C)OC(=O)C(C#N)c1nc2ccccc2nc1N1CCN(Cc2ccc3c(c2)OCO3)CC1 (stereo not drawn)
z-score: 0.237

compound: Cc1cc(COc2ccccc2OCCN2CCN(C)CC2)no1
z-score: -1.63

What value of z-score has been reported for the following compound? CCN1CCCC1Cn1cnc2c([nH]c3ccc(C)cc32)c1=O (stereo not drawn)
0.977

Could you share which z-score value was measured for CC1(C)CC(=O)C2=C(C1)OC(N)=C(C#N)[C@@]21C(=O)N(CC(N)=O)c2ccccc21 ?
0.575

Which z-score is reported for this compound? Cn1c(=O)c2[nH]cnc2n(C)c1=O
0.0873

What measured z-score goes with CC1(C)Cc2c(C#N)c(N3CCOCC3)nc(-c3ccccc3)c2CO1 ?
-0.989

Find the recorded z-score belonging to N#CC12CCCCC1CC1CCCCC1(C#N)N2Cc1ccccn1 (stereo not drawn) and report it.
0.731

Field request: z-score | item: COc1cccc(-c2nc(NC(C)C)c3ccccc3n2)c1O
0.53

Name the reported z-score value associated with the compound CCN(CC)CCNC(=O)c1ccccc1N
0.248

* * *

target: Voltage-gated potassium channel subunit beta-2 (Rattus norvegicus) (UniProt P62483); assay: KvBeta positive modulators, primary screen, biochemical, NADPH fluorescence (AID 623); details: Recombinant KvBeta, NADPH fluorescence decrease slope, 10 min; at 10 µM; stronger effect = lower value;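 also: fluorescence intensity change per second fitted from 20 to 320 s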
Sequence (P62483 whole entry, looked up): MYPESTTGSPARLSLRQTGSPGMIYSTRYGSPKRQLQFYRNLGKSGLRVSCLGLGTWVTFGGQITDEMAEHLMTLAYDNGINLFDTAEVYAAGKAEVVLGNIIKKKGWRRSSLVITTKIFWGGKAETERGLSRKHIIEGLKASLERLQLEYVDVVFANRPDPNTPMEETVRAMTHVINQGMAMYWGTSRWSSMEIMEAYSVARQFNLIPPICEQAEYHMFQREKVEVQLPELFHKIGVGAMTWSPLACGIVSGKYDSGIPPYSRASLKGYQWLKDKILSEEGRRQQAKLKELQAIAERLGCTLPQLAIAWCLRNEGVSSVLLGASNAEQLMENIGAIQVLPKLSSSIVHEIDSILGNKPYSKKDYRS
measurement.name: NADPH fluorescence slope
Write no unit; give the number alone.

Below are worked cases with known answers.
molecule: COc1ccc(/C(O)=C2/C(=O)C(=O)N(CCN3CCOCC3)C2c2ccccn2)cc1 (stereo not drawn)
system: Voltage-gated potassium channel subunit beta-2 (Rattus norvegicus) (UniProt P62483)
NADPH fluorescence slope: -1.3e-05
--
molecule: COc1ccc2c(c1)n([O-])c1c([n+]2=O)CCC1
system: Voltage-gated potassium channel subunit beta-2 (Rattus norvegicus) (UniProt P62483)
NADPH fluorescence slope: -3.5e-05
--
molecule: COc1ccccc1Nc1ncnc2c1cnn2-c1cccc(C)c1
system: Voltage-gated potassium channel subunit beta-2 (Rattus norvegicus) (UniProt P62483)
NADPH fluorescence slope: -3.8e-05
--
molecule: O=C(O)CN(c1ccccc1)C1SC(=O)NC1=O (stereo not drawn)
system: Voltage-gated potassium channel subunit beta-2 (Rattus norvegicus) (UniProt P62483)
NADPH fluorescence slope: -3.4e-05

What value of measured NADPH fluorescence slope is listed for CC(=O)OC12CC3CC(C1)C(=NO)C(C3)C2 ?
-2.1e-05

Param item = CCOC(=O)c1sc2c(c1C)c(=O)c(C(=O)OCC)cn2CC ; retrieve measured NADPH fluorescence slope.
4.1e-06

Quick check: NADPH fluorescence slope of Cc1ccc(C)n1Cc1ccc(C(=O)O)cc1 ?
-4.4e-05

Need NADPH fluorescence slope of CC1(C)S[C@@H]2[C@H](NC(=O)[C@H](C(=O)O)c3ccsc3)C(=O)N2[C@H]1C(=O)O , thanks.
-4.7e-05
